- Tested on: Danio rerio larvae (5 dpf)
- Test Description: 1-h baseline activity (% time moving, periods 1-6) minus DMSO control (percentage points); higher = more locomotor activity than DMSO larvae
- Particulars: 10 µM; exposure time: 3 h pre-incubation + 3 h imaging
Structures can show the parent of a compound that is named as a salt.

{"columns": ["Compound", "1-h baseline activity"],
 "data": [
  ["CC[C@H](C)C(=O)O[C@H]1C[C@@H](C)C=C2C=C[C@H](C)[C@H](CC[C@@H]3C[C@@H](O)CC(=O)O3)[C@H]21 [Lovastatin]", -3.77],
  ["CN1CC[C@@H](NC(=O)Nc2ccc(C#N)cc2)C[C@@H]1c1nc2ccccc2[nH]1", -10],
  ["CC(CCc1ccc(O)cc1)NCCc1ccc(O)c(O)c1 (centres undefined) [Dobutamine hydrochloride]", -2.47],
  ["CCc1ccc(CCOc2ccc(CC3SC(=O)NC3=O)cc2)nc1 (centres undefined) [Pioglitazone hydrochloride]", -7.48],
  ["OCCN(CCO)c1nc(N2CCCCC2)c2nc(N(CCO)CCO)nc(N3CCCCC3)c2n1 [Dipyridamole]", -3.7],
  ["COC(c1ccccc1)(c1ccccc1)[C@H](Oc1nc(C)cc(C)n1)C(=O)O [Ambrisentan]", 0.292],
  ["COc1ccccc1OCCNCC(O)COc1cccc2[nH]c3ccccc3c12 (centres undefined) [Carvedilol]", -12.4],
  ["Clc1ccccc1C(c1ccccc1)(c1ccccc1)n1ccnc1 [Clotrimazole]", -22.9],
  ["CC(=O)NC[C@H]1CN(c2ccc(N3CCOCC3)c(F)c2)C(=O)O1 [Linezolid]", 3.05],
  ["C[C@H]1C[C@@H]2[C@H]([C@@H](O)C[C@@]3(C)[C@H]2CC[C@]3(O)C(=O)CO)[C@@]2(C)C=CC(=O)C=C12 [Methylprednisolone]", -0.716],
  ["CCOc1ccccc1OCCN[C@H](C)Cc1ccc(OC)c(S(N)(=O)=O)c1 [Tamsulosin hydrochloride]", 3.66],
  ["CC(=O)Oc1ccccc1C(=O)O [Aspirin]", -0.776],
  ["C[C@]12CCC(=O)C=C1CC[C@@H]1[C@@H]2[C@@H](O)C[C@@]2(C)[C@H]1CC[C@]2(O)C(=O)CO [Hydrocortisone]", 1.95],
  ["CCOC(=O)N1CCC(=C2c3ccc(Cl)cc3CCc3cccnc32)CC1 [Loratidine]", -19.4],
  ["COc1c(C)c2c(c(O)c1C/C=C(\\C)CCC(=O)O)C(=O)OC2 [Mycophenolic acid]", 1.89],
  ["Cc1cccc(C)c1OCC(C)N (centres undefined) [Mexiletine hydrochloride]", 3.37],
  ["CC(C)c1nc(N(C)S(C)(=O)=O)nc(-c2ccc(F)cc2)c1/C=C/[C@@H](O)C[C@@H](O)CC(=O)O [Rosuvastatin calcium]", 2.58],
  ["O=C1CCc2cc(OCCCCc3nnnn3C3CCCCC3)ccc2N1 [Cilostazol]", 10],
  ["CC(C)c1ccc2oc3nc(N)c(C(=O)O)cc3c(=O)c2c1 [Amlexanox]", 5.8],
  ["Nc1nc(Cl)nc2c1ncn2[C@@H]1O[C@H](CO)[C@@H](O)[C@@H]1F [Clofarabine]", -5.31],
  ["CN1CCC[C@@H]1Cc1c[nH]c2ccc(CCS(=O)(=O)c3ccccc3)cc12 [Eletriptan hydrobromide]", 2.42],
  ["COc1cc(Nc2c(C#N)cnc3cc(OCCCN4CCN(C)CC4)c(OC)cc23)c(Cl)cc1Cl [Bosutinib]", -17.1],
  ["CCc1c2c(nc3ccc(OC(=O)N4CCC(N5CCCCC5)CC4)cc13)-c1cc3c(c(=O)n1C2)COC(=O)[C@]3(O)CC", -6.2],
  ["CCCCNc1cc(C(=O)O)cc(S(N)(=O)=O)c1Oc1ccccc1 [Bumetanide]", 3]
]}

----------
- Tested on: Danio rerio larvae (5 dpf)
- Test Description: excitability (activity period 17 minus period 16, 1-s interval sound) minus DMSO control (percentage points); higher = more acoustic excitability than DMSO larvae
- Particulars: 10 µM; exposure time: 3 h pre-incubation + 3 h imaging
Counter-ions that a name gives are not always drawn.
The entries below come with measured excitability values attached.

{"columns": ["Compound", "Measurement Target", "excitability"],
 "data": [
  ["CCOc1nc2cccc(C(=O)O)c2n1Cc1ccc(-c2ccccc2-c2nnn[nH]2)cc1", "Danio rerio larvae (5 dpf)", -3.55],
  ["CN1CCC[C@@H]1Cc1c[nH]c2ccc(CCS(=O)(=O)c3ccccc3)cc12 [Eletriptan hydrobromide]", "Danio rerio larvae (5 dpf)", 6.84],
  ["Nc1ncn([C@@H]2O[C@H](CO)[C@@H](O)[C@H]2O)c(=O)n1", "Danio rerio larvae (5 dpf)", -2.47],
  ["CC(=O)S[C@@H]1CC2=CC(=O)CC[C@]2(C)[C@H]2CC[C@@]3(C)[C@@H](CC[C@@]34CCC(=O)O4)[C@H]12", "Danio rerio larvae (5 dpf)", 3.91],
  ["Cc1ccc(N(CC2=NCCN2)c2cccc(O)c2)cc1 [Phentolamine Mesylate]", "Danio rerio larvae (5 dpf)", 15.6],
  ["Cc1cc(C2CCCCC2)n(O)c(=O)c1", "Danio rerio larvae (5 dpf)", 5.61],
  ["C[C@H]1C[C@@H]2[C@H]([C@@H](O)C[C@@]3(C)[C@H]2CC[C@]3(O)C(=O)CO)[C@@]2(C)C=CC(=O)C=C12", "Danio rerio larvae (5 dpf)", 1.52]
]}

----------
- System: Danio rerio larvae (5 dpf)
- Test Description: combined upward orientation toward moving lines (periods 7-14) minus DMSO control (percentage points); higher = more orientation with moving lines than DMSO larvae
- Particulars: 10 µM; exposure time: 3 h pre-incubation + 3 h imaging
Where a name gives a salt, the structure may show the parent alone.
Measurement Type: combined upward orientation toward moving lines

{"columns": ["Compound", "Measurement Target", "Test Result"],
 "data": [
  ["CN1CC(=O)N2[C@H](c3ccc4c(c3)OCO4)c3[nH]c4ccccc4c3C[C@@H]2C1=O", "Danio rerio larvae (5 dpf)", -7.35],
  ["CCN(Cc1ccncc1)C(=O)C(CO)c1ccccc1 (stereo not drawn) [Tropicamide]", "Danio rerio larvae (5 dpf)", 3.89],
  ["COc1cccc2c1C(=O)c1c(O)c3c(c(O)c1C2=O)C[C@@](O)(C(=O)CO)C[C@@H]3O[C@H]1C[C@H](N)[C@H](O)[C@H](C)O1 [Doxorubicin hydrochloride]", "Danio rerio larvae (5 dpf)", -1.38]
]}

----------
Entries and their measured startle follow.
- Test system: Danio rerio larvae (5 dpf)
- Test Description: startle (activity period 16 minus period 15, 20-s interval sound) minus DMSO control (percentage points); higher = stronger startle response than DMSO larvae
- Particulars: 10 µM; exposure time: 3 h pre-incubation + 3 h imaging
Structures can show the parent of a compound that is named as a salt.

{"columns": ["Molecule", "startle"],
 "data": [
  ["CC(C)(C)NC(=O)[C@@H]1C[C@@H]2CCCC[C@@H]2CN1C[C@@H](O)[C@H](Cc1ccccc1)NC(=O)[C@H](CC(N)=O)NC(=O)c1ccc2ccccc2n1 [Saquinavir mesylate]", 0.811],
  ["CCCN(CCC)S(=O)(=O)c1ccc(C(=O)O)cc1 [Probenecid]", 0.405],
  ["CC(C)C(=O)Nc1ccc([N+](=O)[O-])c(C(F)(F)F)c1 [Flutamide]", -5.6],
  ["Cc1ccc(-c2cc(C(F)(F)F)nn2-c2ccc(S(N)(=O)=O)cc2)cc1 [Celecoxib]", -8.09],
  ["CC(=O)Oc1ccccc1C(=O)O [Aspirin]", -4],
  ["CC#C[C@]1(O)CC[C@H]2[C@@H]3CCC4=CC(=O)CCC4=C3[C@@H](c3ccc(N(C)C)cc3)C[C@@]21C [Mifepristone]", 0.533],
  ["COC(c1ccccc1)(c1ccccc1)[C@H](Oc1nc(C)cc(C)n1)C(=O)O [Ambrisentan]", 6.56],
  ["COc1c(C)c2c(c(O)c1C/C=C(\\C)CCC(=O)O)C(=O)OC2 [Mycophenolic acid]", 3.04],
  ["CN(C)CC/C=C1/c2ccccc2COc2ccc(CC(=O)O)cc21 [Olopatadine hydrochloride]", 1.07]
]}

----------
- System: Danio rerio larvae (5 dpf)
- Test Description: startle (activity period 16 minus period 15, 20-s interval sound) minus DMSO control (percentage points); higher = stronger startle response than DMSO larvae
- Particulars: 10 µM; exposure time: 3 h pre-incubation + 3 h imaging
Counter-ions that a name gives are not always drawn.
Threshold check on startle: at or above 1 gives true, strictly below gives false.

{"columns": ["Molecule", "Measurement Target", "Class Label"],
 "data": [
  ["COc1cc([C@@H]2c3cc4c(cc3[C@@H](O[C@@H]3O[C@@H]5CO[C@@H](C)O[C@H]5[C@H](O)[C@H]3O)[C@H]3COC(=O)[C@H]23)OCO4)cc(OC)c1O [Etoposide]", "Danio rerio larvae (5 dpf)", "false"],
  ["O=C(O)C[C@H](O)C[C@H](O)/C=C/c1c(C2CC2)nc2ccccc2c1-c1ccc(F)cc1", "Danio rerio larvae (5 dpf)", "true"],
  ["CN(C)CCc1c[nH]c2ccc(C[C@H]3COC(=O)N3)cc12", "Danio rerio larvae (5 dpf)", "true"],
  ["NS(=O)(=O)c1cc2c(cc1Cl)NC(C1CC3C=CC1C3)NS2(=O)=O (stereo not given) [Cyclothiazide]", "Danio rerio larvae (5 dpf)", "true"],
  ["CCCc1nn(C)c2c(=O)[nH]c(-c3cc(S(=O)(=O)N4CCN(C)CC4)ccc3OCC)nc12 [Sildenafil citrate]", "Danio rerio larvae (5 dpf)", "false"]
]}

FYI, the data here is from the supplement of paper PMC9950053.
